# credit: patent US20230382924A1

Target: CFTR (Homo sapiens)
Assay: Membrane Potential Dye, Enteroid Assay A
Format: cell-based
Conditions: Table 9
Description: Base medium (ADF+++) consisted of Advanced DMEM/Ham's F12, 2 mM Glutamax, 10 mM HEPES, […] penicillin/streptomycin. Bath 1 Buffer consisted of 1 mM MgCl2, 160 mM NaCl, 4.5 mM KCl, 10 mM HEPES, 10 mM Glucose, 2 mM CaCl2). […] Briefly, cells were washed 5 times in Bath 1 Buffer. […] Chloride transport was initiated by addition of Chloride Free Dye Stimulation Solution and the fluorescence signal was read for 15 min. […]
Property label: Ent. A Max Activity

Observe how each entry below is paired with its result.
[[record]]
compound = "Cc1cccc(C)c1-c1cc2nc(n1)NS(=O)(=O)c1cccc(c1)C(=O)NCC(c1ccc(C3CCC3)cc1)O2 (single isomer, unassigned) [Compound 13]"
data_value = "+ (+ is <30%)"

[[record]]
compound = "Cc1cccc(C)c1-c1cc2nc(n1)NS(=O)(=O)c1cccc(c1)C(=O)N[C@@H]1CN(C3CCC4(CC3)CC4)C[C@H]1O2"
data_value = "+++ (+++ is >60%)"

[[record]]
compound = "Cc1cccc(C)c1-c1cc2nc(n1)NS(=O)(=O)c1cccc(c1)C(=O)N[C@@H](CC(F)(F)F)CO2 (single isomer, unassigned) [Compound 93]"
data_value = "++ (++ is 30-60%)"

[[record]]
compound = "Cc1cccc(C)c1-c1cc2nc(n1)NS(=O)(=O)c1cccc(c1)C(=O)NC[C@@H](c1ccc(CCC3(C(F)(F)F)CC3)cc1)O2 [Compound 145]"
data_value = "++ (++ is 30-60%)"

[[record]]
compound = "Cc1cccc(C)c1-c1cc2nc(n1)NS(=O)(=O)c1cccc(c1)C(=O)NC[C@@H](c1ccc(C(C)(C)C(F)(F)F)cc1)O2 [Compound 257]"
data_value = "+ (+ is <30%)"

[[record]]
compound = "CCC(C)(C)C(=O)N1CC[C@H]2NC(=O)c3cccc(c3)S(=O)(=O)Nc3nc(cc(-c4c(C)cccc4C)n3)OC2C1 (stereo in doubt)"
data_value = "++ (++ is 30-60%)"

[[record]]
compound = "CCCC1(CCC)COc2cc(-c3c(C)cccc3C)nc(n2)NS(=O)(=O)c2cccc(c2)C(=O)N1"
data_value = "+++ (+++ is >60%)"

[[record]]
compound = "Cc1cccc(C)c1-c1cc2nc(n1)NS(=O)(=O)c1cccc(c1)C(=O)N[C@H](CC(C)C)CCO2"
data_value = "+++ (+++ is >60%)"


The measured Ent. A Max Activity associated with Cc1cccc(C)c1-c1cc2nc(n1)NS(=O)(=O)c1cccc(c1)C(=O)N[C@@H]1CCN(CCC(C)(C)C)C[C@H]1O2 (single isomer, unassigned) reads + (+ is <30%)

The measured Ent. A Max Activity associated with Cc1cccc(C)c1-c1cc2nc(n1)NS(=O)(=O)c1cccc(c1)C(=O)NCC(c1ccc(C(F)(F)C(F)(F)F)cc1)O2 (stereo not shown) reads +++ (+++ is >60%)

The measured Ent. A Max Activity associated with CCC[C@H]1NC(=O)c2cccc(c2)S(=O)(=O)Nc2nc(cc(-c3c(C)cccc3C)n2)O[C@@H]1c1ccc(C(C)(C)C)cc1 reads +++ (+++ is >60%)

The measured Ent. A Max Activity associated with Cc1cccc(C)c1-c1cc2nc(n1)NS(=O)(=O)c1cccc(c1)C(=O)N[C@@H]1CN(C3CC4(CCCCC4)C3)C[C@H]1O2 reads +++ (+++ is >60%)

The measured Ent. A Max Activity associated with Cc1cccc(C)c1-c1cc2nc(n1)NS(=O)(=O)c1cccc(c1)C(=O)NC[C@@H](c1ccc(C(C)(C)C(F)(F)F)cc1)O2 [Compound 262] reads +++ (+++ is >60%)

The measured Ent. A Max Activity associated with Cc1cccc(C)c1-c1cc2nc(n1)NS(=O)(=O)c1cccc(c1)C(=O)N[C@@H](C(CC(C)C)c1ccccc1)CO2 (stereo in doubt) [Compound 183] reads +++ (+++ is >60%)

The measured Ent. A Max Activity associated with COc1cc(Cc2cccc(C)c2-c2cc3nc(n2)NS(=O)(=O)c2cccc(c2)C(=O)N[C@H](CC(C)C)CO3)cc(OC)c1 reads +++ (+++ is >60%)

* * *

target: UniProt:P13569; experiment: Membrane Potential Dye, Enteroid Assay A; assay type: cell-based; settings: Enteroid Assay A
Property label: Ent. A Max Activity

[[record]]
compound = "Cc1cccc(C)c1-c1cc2nc(n1)NS(=O)(=O)c1cccc(c1)C(=O)NCC1(CCN(C(=O)[C@]3(C)CCCN3C(=O)OC(C)(C)C)CC1)CO2"
data_value = "++ (++ is 30-60%)"

[[record]]
compound = "Cc1cccc(C)c1-c1cc2nc(n1)NS(=O)(=O)c1cccc(c1)CNC1C[C@@H](CN(C(=O)OCc3ccccc3)C1)O2 (stereo in doubt) [Compound 193]"
data_value = "++ (++ is 30-60%)"


* * *

molecular target: CFTR (Homo sapiens, UniProt P13569); assay: Membrane Potential Dye, Enteroid Assay A; assay type: cell-based; conditions: Table 9
Sequence (P13569 with tags, fused parts or gaps DEL508-508): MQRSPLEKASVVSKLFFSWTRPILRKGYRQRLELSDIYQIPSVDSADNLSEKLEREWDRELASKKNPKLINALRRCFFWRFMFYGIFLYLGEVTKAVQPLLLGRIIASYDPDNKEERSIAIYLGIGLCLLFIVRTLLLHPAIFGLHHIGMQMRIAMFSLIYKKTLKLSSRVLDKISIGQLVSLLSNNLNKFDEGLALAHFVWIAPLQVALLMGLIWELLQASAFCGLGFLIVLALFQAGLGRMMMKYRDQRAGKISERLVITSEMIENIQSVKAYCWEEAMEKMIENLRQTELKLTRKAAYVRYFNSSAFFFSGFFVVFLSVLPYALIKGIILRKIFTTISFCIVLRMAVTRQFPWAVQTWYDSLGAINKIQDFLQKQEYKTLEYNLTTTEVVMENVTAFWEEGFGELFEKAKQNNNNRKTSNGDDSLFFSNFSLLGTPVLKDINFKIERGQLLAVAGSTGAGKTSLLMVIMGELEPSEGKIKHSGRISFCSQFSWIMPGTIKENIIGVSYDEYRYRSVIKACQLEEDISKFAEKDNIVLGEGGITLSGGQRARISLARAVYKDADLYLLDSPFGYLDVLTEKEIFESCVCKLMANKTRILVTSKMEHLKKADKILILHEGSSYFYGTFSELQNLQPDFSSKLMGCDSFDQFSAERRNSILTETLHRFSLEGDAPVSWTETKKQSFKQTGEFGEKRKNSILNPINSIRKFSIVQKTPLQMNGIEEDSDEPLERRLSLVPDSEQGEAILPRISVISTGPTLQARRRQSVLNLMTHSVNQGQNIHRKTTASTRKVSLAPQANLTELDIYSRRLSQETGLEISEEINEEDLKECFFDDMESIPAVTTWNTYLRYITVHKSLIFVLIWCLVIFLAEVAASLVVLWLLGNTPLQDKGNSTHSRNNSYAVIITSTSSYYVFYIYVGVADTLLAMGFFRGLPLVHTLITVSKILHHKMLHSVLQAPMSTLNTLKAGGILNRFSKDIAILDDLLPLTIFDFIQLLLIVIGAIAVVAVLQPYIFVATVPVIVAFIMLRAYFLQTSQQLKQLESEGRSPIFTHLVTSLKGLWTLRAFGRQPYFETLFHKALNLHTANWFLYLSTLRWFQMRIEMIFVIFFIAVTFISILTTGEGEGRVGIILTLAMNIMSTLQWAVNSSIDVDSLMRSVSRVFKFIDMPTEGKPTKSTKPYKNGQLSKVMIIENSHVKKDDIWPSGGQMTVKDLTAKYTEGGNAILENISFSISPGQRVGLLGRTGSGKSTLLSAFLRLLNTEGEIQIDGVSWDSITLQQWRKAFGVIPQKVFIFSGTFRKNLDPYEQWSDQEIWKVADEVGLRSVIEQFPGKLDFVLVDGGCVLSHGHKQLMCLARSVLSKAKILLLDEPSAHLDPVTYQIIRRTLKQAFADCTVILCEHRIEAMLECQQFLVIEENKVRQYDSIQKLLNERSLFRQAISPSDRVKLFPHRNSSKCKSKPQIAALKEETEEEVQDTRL
Property label: Ent. A Max Activity

Observe how each entry below is paired with its result.
[[record]]
compound = "Cc1cccc(C)c1-c1cc2nc(n1)NS(=O)(=O)c1cccc(c1)C(=O)N[C@@H]1CCN(Cc3ccc(C(C)(C)C)cc3)C[C@@H]1O2 (single isomer, unassigned) [Compound 91]"
data_value = "+++ (+++ is >60%)"

[[record]]
compound = "Cc1cccc(C)c1-c1cc2nc(n1)NS(=O)(=O)c1cccc(c1)C(=O)NC1(CCC(C(C)(C)C)CC1)CO2 (stereo not shown) [Compound 495]"
data_value = "+++ (+++ is >60%)"

[[record]]
compound = "Cc1cccc(C)c1-c1cc2nc(n1)NS(=O)(=O)c1cccc(c1)C(=O)N[C@@H]1CN(CCC3(C(F)(F)F)CC3)C[C@H]1O2 [Compound 378]"
data_value = "+++ (+++ is >60%)"

[[record]]
compound = "CC[C@H]1NC(=O)c2cccc(c2)S(=O)(=O)Nc2nc(cc(-c3c(C)cccc3C)n2)O[C@H]1c1ccc(C(C)(C)C)cc1 [Compound 132]"
data_value = "+++ (+++ is >60%)"

[[record]]
compound = "CCC(CC)(CC)c1ccc(C2CNC(=O)c3cccc(c3)S(=O)(=O)Nc3nc(cc(-c4c(C)cccc4C)n3)O2)cc1 (stereo not shown) [Compound 266]"
data_value = "++ (++ is 30-60%)"


The measured Ent. A Max Activity associated with Cc1cccc(C)c1-c1cc2nc(n1)NS(=O)(=O)c1cccc(c1)C(=O)NC[C@@H](c1ccc(C3CC3)cc1)O2 [Compound 260] reads +++ (+++ is >60%)

The measured Ent. A Max Activity associated with CC(C)C[C@@H]1COc2cc(C3CCCCC3(C)C)nc(n2)NS(=O)(=O)c2cccc(c2)C(=O)N1 (stereo partly shown) [Compound 68] reads +++ (+++ is >60%)

The measured Ent. A Max Activity associated with Cc1cccc(C)c1-c1cc2nc(n1)NS(=O)(=O)c1cccc(c1)C(=O)NC[C@@H](c1ccc(CCC3(C(F)(F)F)CC3)cc1)O2 [Compound 146] reads +++ (+++ is >60%)

The measured Ent. A Max Activity associated with CC(C)C[C@@H]1COc2cc(-c3ccccc3-c3ccccc3)nc(n2)NS(=O)(=O)c2cccc(c2)C(=O)N1 [Compound 101] reads +++ (+++ is >60%)

The measured Ent. A Max Activity associated with Cc1cccc(C)c1-c1cc2nc(n1)NS(=O)(=O)c1cccc(c1)C(=O)NC[C@H](c1ccc(CCC(C)(C)C)cc1)O2 (stereo in doubt) [Compound 148] reads ++ (++ is 30-60%)

The measured Ent. A Max Activity associated with Cc1cccc(C)c1-c1cc2nc(n1)NS(=O)(=O)c1cccc(c1)C(=O)NC(C)(CC(C)C)CO2 (stereo not shown) [Compound 176] reads +++ (+++ is >60%)

The measured Ent. A Max Activity associated with Cc1cccc(C)c1-c1cc2nc(n1)NS(=O)(=O)c1cccc(c1)C(=O)NCC(c1ccc(C34CC(C3)C4)cc1)O2 (stereo not shown) [Compound 396] reads +++ (+++ is >60%)

* * *

Molecular target: CFTR (Homo sapiens, UniProt P13569)
Assay: Membrane Potential Dye, Enteroid Assay A
Type: cell-based
Conditions: Table 8
Procedure: Base medium (ADF+++) consisted of Advanced DMEM/Ham's F12, 2 mM Glutamax, 10 mM HEPES, […] penicillin/streptomycin. Bath 1 Buffer consisted of 1 mM MgCl2, 160 mM NaCl, 4.5 mM KCl, 10 mM HEPES, 10 mM Glucose, 2 mM CaCl2). […] Briefly, cells were washed 5 times in Bath 1 Buffer. […] Chloride transport was initiated by addition of Chloride Free Dye Stimulation Solution and the fluorescence signal was read for 15 min. […]
Property label: Ent. A Max Activity

Observe how each entry below is paired with its result.
[[record]]
compound = "Cc1cccc(C)c1-c1cc2nc(n1)NS(=O)(=O)c1cncc(c1)C(=O)N[C@H](CC(C)C)CO2 [Compound 413]"
property_label = "Ent. A Max Activity"
data_value = "+++ (+++ is >60%)"

[[record]]
compound = "Cc1cccc(C)c1-c1cc2nc(n1)NS(=O)(=O)c1cccc(c1)C(=O)NC(C(=O)NCc1ccccc1)CO2 (stereo not shown) [Compound 236]"
property_label = "Ent. A Max Activity"
data_value = "+ (+ is <30%)"

[[record]]
compound = "Cc1ccccc1[C@H]1CNC(=O)c2cccc(c2)S(=O)(=O)Nc2nc(cc(-c3c(C)cccc3C)n2)O1 (stereo in doubt) [Compound 277]"
property_label = "Ent. A Max Activity"
data_value = "+ (+ is <30%)"

[[record]]
compound = "Cc1cccc(C)c1-c1cc2nc(n1)NS(=O)(=O)c1cccc(c1)C(=O)NC[C@@H](c1ccccn1)O2 [Compound 232]"
property_label = "Ent. A Max Activity"
data_value = "+ (+ is <30%)"

[[record]]
compound = "Cc1cccc(C)c1-c1cc2nc(n1)NS(=O)(=O)[C@H]1CCCN(C1)C(=O)N[C@H](CC1CCCCC1)CO2 (stereo in doubt) [Compound 159]"
property_label = "Ent. A Max Activity"
data_value = "+ (+ is <30%)"


The measured Ent. A Max Activity associated with Cc1ccc(C2CNC(=O)c3cccc(c3)S(=O)(=O)Nc3nc(cc(-c4c(C)cccc4C)n3)O2)cc1 (stereo not shown) [Compound 406] reads + (+ is <30%)

The measured Ent. A Max Activity associated with Cc1cccc(C)c1-c1cc2nc(n1)NS(=O)(=O)c1cccc(c1)C(=O)N[C@H](C(CC(C)C)CC(C)C)CO2 [Compound 494] reads +++ (+++ is >60%)
